experiment: NCI Yeast Anticancer Drug Screen. Data for the wt2 strain (AID 169);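 further: 0% = growth of vehicle-treated yeast cultures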; settings: S. cerevisiae wt2 strain growth inhibition; at 1.2 µM; hits give high values
This is part of a sample that, as a whole, favours compounds with a hit. Of some 79,000 tested, about 15% had one in any assay.
MEASUREMENT TYPE: growth inhibition (%)
Use % as the unit, but write only the number.

{"COMPOUND": "COc1ccc2c(C)cc(N/N=C/c3sccc3C)nc2c1", "growth inhibition / %": 13}

For record CCc1nc2ccc(N=Nc3c(O)ccc4ccccc34)cc2[nH]1 the listed growth inhibition is -13

====

assay: NCI Yeast Anticancer Drug Screen. Data for the mgt1 strain (AID 153); details: S. cerevisiae mgt1 mutant growth inhibition; at 100.0 µM
Compounds without any hit were thinned out: in the full panel of roughly 79,000, 15% have a hit. Activity calls are given as the source filed them. Cut-off read from the data, not from the text of the source: active = growth inhibition above about 70%; inactive = the rest.
API: response.call in active, inactive

Solved entries:
{"COMPOUND": "CSc1ccc2c(c1)C(N1CCN(C)CC1)Cc1ccccc1S2 (stereo not given)", "LABEL VALUE": "active"}
{"COMPOUND": "O=S(=O)(O)c1ccc2c(N=Nc3c(O)ccc4ccccc34)cccc2c1", "LABEL VALUE": "inactive"}
{"COMPOUND": "[O-]c1c2cc(-[n+]3c(-c4ccccc4)cc(-c4ccccc4)cc3-c3ccccc3)cc1COCCOCCOCCOCCOC2", "LABEL VALUE": "active"}
{"COMPOUND": "CCOC(=O)c1sc2[n+](c1C)C(=O)/C(=C/c1cc(OC)c(OC)c(OC)c1)S2", "LABEL VALUE": "active"}

Please turn your attention to the following entry.
Q: Call for entry O=C(/C(=C/c1ccccc1)CBr)c1ccccc1 :
Result: active

====

Measured growth inhibition, listed per entry.
Test: NCI Yeast Anticancer Drug Screen. Data for the mgt1 strain (AID 153)
Conditions: S. cerevisiae mgt1 mutant growth inhibition; at 100.0 µM; hits give high values
Description: Growth inhibition of yeast strains with defined genetic alterations is measured as a screen for potential anti-cancer activity. Selected strains with alterations in DNA damage repair or cell cycle control were exposed to compounds and growth inhibition was measured relative to vehicle treated controls. The strain used in this assay is mgt1
Compounds without any hit were thinned out: in the full panel of roughly 79,000, 15% have a hit.
Use % as the unit, but write only the number.

As a guide, the following entries are already answered.
{"COMPOUND": "O=C1C(C(O)(C(F)(F)F)C(F)(F)F)CCC1C(O)(C(F)(F)F)C(F)(F)F (configuration not stated)", "growth inhibition / %": 34}
{"COMPOUND": "CCOc1nc(OCC)nc(-c2cccn2-c2ccccc2)n1", "growth inhibition / %": 96}
{"COMPOUND": "CCCCCCCCCCCCOC1C(COCCN2CCCC2)OC2OC(C)(C)OC21 (configuration not stated)", "growth inhibition / %": 98}
{"COMPOUND": "O=Cc1ccccc1B(O)O", "growth inhibition / %": 99}
{"COMPOUND": "CN(C)c1ccc(/C=C/c2ccnc3ccc4ccccc4c23)cc1", "growth inhibition / %": 58}
{"COMPOUND": "CCCCCCCCCCCCCCCCOCC(Cl)COP(=O)(O)OP(=O)(O)OCC1OC(n2cnc3c(N)ncnc32)C(O)C1O (configuration not stated)", "growth inhibition / %": 85}

For record C=Cc1c(C)c(O)cc2c1-c1ccc(O)c(C)c1CC2 the listed growth inhibition is 99

For record O=C(O)CN(CCNC(=O)OCC1c2ccccc2-c2ccccc21)CCNC(=O)OCC1c2ccccc2-c2ccccc21 the listed growth inhibition is 95

For record N=C(N)c1ccc(N=Nc2c(O)ccc3c2[nH]c2ccccc23)cc1 the listed growth inhibition is 95

For record O=C(O)/C=C\C(=O)NNc1ccc(Br)cc1 the listed growth inhibition is 98

For record O=C(CCCN1CCC2(CC1)OC(=O)N(c1ccccc1)C2=O)c1ccccc1 the listed growth inhibition is 74

For record CNC(=O)OCc1c(COC(=O)NC)c(C)n(-c2ccc(Cl)c(Cl)c2)c1C the listed growth inhibition is 99

For record CC1=Cc2ccc(C)cc2C(=O)C1=O the listed growth inhibition is 99

For record O=C(Nn1c(-c2ccccc2)nc2ccccc2c1=O)c1ccc(Cl)cc1 the listed growth inhibition is 94
